test: Stability testing of capsules at 25° C./60% RH in water impermeable blister pack; type: physicochemical; conditions: 0.5 mg capsules of Example 28, 3 months
MEASUREMENT_NAME: Decomposition products (% w/w), relative to the amount of tasquinimod in capsule

Lab book: Decomposition products (% w/w), relative to the amount of tasquinimod in capsule of COc1cccc2c1c(O)c(Cc1c(O)c3c(OC)cccc3n(C)c1=O)c(=O)n2C [Compound IV] noted as <0.05 % w/w

Lab book: Decomposition products (% w/w), relative to the amount of tasquinimod in capsule of COc1cccc2c1c(O)cc(=O)n2C [Compound III] noted as 0.05 % w/w

Lab book: Decomposition products (% w/w), relative to the amount of tasquinimod in capsule of CNc1ccc(C(F)(F)F)cc1 [Compound I, N-methyl-4-(trifluoromethyl)aniline] noted as <0.05 % w/w

Continuing:
Lab book: Decomposition products (% w/w), relative to the amount of tasquinimod in capsule of COc1cccc2c1c(O)c(C(=O)O)c(=O)n2C [Compound II] noted as <0.05 % w/w

// data source = patent US20240277693A1
